Tested on: MS2 coat protein
Test: apparent KD of MS2 coat protein; higher = weaker reporter binding
Conditions: Eterna round: R107; input ligand: theophylline 2 mM
# cutoff 70 nM applies to apparent KD of MS2 coat protein; >= gives yes, < gives no

Textbook exercise: given the entry ACACAUGAGGAUCAUCCAUGUGCCCAUGAAGGAGCGUGGGAAACCACAGGUAGGUCGCAUGACAUGAGGAUCACCCAUGUUUAUU [#03 Exclusion - Arginine A] , state whether its apparent KD of MS2 coat protein is greater than or equal to 70 nM.
yes

Then what about the sequence UUUACAUGAGGAUCACCCAUGUGCCAUGAUACCAGACAUGAAAAUGUCCCUUGGCAGCAUGGGUGUAGCGUCGGGAAACCGACGC [Kohoutovice] ?
yes

Repeat for the following sequence: UACCUUAACACGGCCGCCACUCUCUAAUAGGAUCAUGGUACCGCACAUGAGGAUCACCCAUGUUUGAGGACCGGGUGUUAUGAAG [theeternabot_sameState_MS2_Trp_B_24]
no

Follow-up entry: AUACAUGAGGAUCACCCAUGUGAUGGCCGGCGAGGACCGGUACGGCCGCCACUCGUGAUCCGUCCUGAAAGCAAAGCUCUCAACA [Esraleri]
yes

Same question for AUAAAUAAUAAAUAAAAUAAAGUGGGUGAACGAGGACCGGUACGGCCGCCACUCGGACAUGAGGAUCACCCAUGUCCAUGUGAAA [AstrosExyTry#1] please.
no

Try the sequence UACUUGCUGACGGCCGCCACUAGAACAUGAGGAUCACCCAUGUAUGGCGGCCGAAUCCUCAUGACUAGGACCGGGUCAGCAAGAU [(Trp1)-(Ms2)-(T)'-(M)'-(Trp2)_Design2]
no

Next record, please: GGUUGAAACUGAAGGAGCGAGAUGACAACAUUGGGUCUAACAUGAGGAUCACCCAUGUAAUCUCAGGUAGGUCGCAGUGACCAAA [Exclusion Arginine B GF 14]
no

====

Assign apparent KD of K4 kissing-loop reporter to each entry below.
System: K4 kissing-loop RNA reporter;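 also: bound reporter read as fluorescence of individual clusters on recovered sequencing chips by microscopy, with normalized cluster intensities fitted with a binding model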
Test: apparent KD of K4 kissing-loop reporter; higher = weaker reporter binding
Details: Eterna round: R107; input ligand: FMN 200 uM

Which measured apparent KD of K4 kissing-loop reporter value corresponds to CCGCCGGUCGGAAGGAGCGCACGCCAGAGUGAUGUUCUGGCGCGGGCACUUUAUGCCCGCGUGCAGGUAGGUCGCCGAUUCUGGC [Mabema] ?
0.464 µM

Can you handle GGUAGCAUGGCGGCCGCCACUUCGAAUAAGUGAUGUUUAUUUGACUGAGCACCCUAUGCCAUGUGAAGGACCGGGCCAUGCUACC next?
0.147 µM

Also CCCUAAAUAUGCAGUGAUGUUGCAACUGAUACCAGUAUCGAAAGAUACCCUUGGCAGCGGAAAACCGCUACGUAAUUUAAUAGGG [Ex Theophylline A K4 20] , if possible.
0.294 µM

====

Consider the following sequences; for each one, report its apparent KD of MS2 coat protein.
Test system: MS2 coat protein
Assay: apparent KD of MS2 coat protein; designed switch direction (-1 OFF switch, 1 ON switch): -1; higher = weaker reporter binding
Settings: input ligand: none
Provide only the numeric value, understood in nM.

Tell me the measured apparent KD of MS2 coat protein of ACCUCACAUGAGGAUCACCCAUGUCAGGAUAUCUUUUAAAACGCGAAUCGCGUCGCUGAGAGAAGGGACAUUAA [EX1 #21] (Eterna round: R97, puzzle: Exclusion 1) , please.
39.1

AUUAUAAAUGUAGGAUAUCUGCACGAUUAGUGCAGAGAAGGACAUGAGGAUCACCCAUGUAGAUCAAUAAUAAUUAAUUUAAUU [ENG1/5-B1] (Eterna round: R96, puzzle: Exclusion NG 1) ?
39.8

Param item: GCAGCAAAUUCCACUAAAACCACAUGAGGAUCACCCAUGUCUCAGGAUAUGGUCUGGAUUACAGGCCAGAAGGGAGAAAGCUGC [Eli exng3 - 056] (Eterna round: R96, puzzle: Exclusion NG 3)
14.8

Repeat with CUAACAUGCUGGUGAUCAUACAUGAGGAUCACCCAUGUAACAAGCUUUUUGCUCGUCUUAAUUUAAUUGAUUACUAG [Stov1/8-A3] (Eterna round: R97, puzzle: Sensor, turn-off variant 1)
113

Another: AAAAGUUGGUAAGGAUAUCCCACAUUAUUCUGACCCGUGCAAGCUACAUGAGGAUCACCCAUGUGGGAGAAGGUGCGUUAAAGA [Zatiisor] (Eterna round: R96, puzzle: Exclusion NG 2)
78.8

Further, for UAUUAGCAAGUAAGAUCCCACAUGAGGAUCACCCAUGUGCUCGUCAUAUCAGGUACUGUGAGGAAACUCACGGUACG [Sensor-V1 #86] (Eterna round: R97, puzzle: Sensor, turn-off variant 1) ?
169

Then what about the sequence UGCAGACGAGGAUAUAAAUGAUAUAACAUGAGGAUCACCCAUGUACGAUCGAAUGAUCGUUUAGAAGGCGUCUGCU [E5/11-A3] (Eterna round: R97, puzzle: Exclusion 5) ?
15.5

# iterate: AUAGUCUGGCAAGGAUAUAGGAAAGGAAGUGUACUAGAAGGUGCGCAGACAUGAGGAUCACCCAUGUGAGCCGACGAAAUAAUA [PowerStrip EXNG 1.17] (Eterna round: R96, puzzle: Exclusion NG 1)
141

Moving on to the next sequence: AAAGCGUCAGGAUAUCCAAUAUAUGACAUGAGGAUCACCCAUGUUUCCACUCGUACCUCCGGAGAAGGGACAAAUA [Ex5 #86] (Eterna round: R97, puzzle: Exclusion 5)
38.1

What do you have for UCGUUCCGUGUAGGAUAUUGGCCUUCCCUGGGCCGAGAAGGACAUGAGGAUCACCCAUGUAUGUUAUUAUCGCGCGUGGCGCAU [Design 86] (Eterna round: R96, puzzle: Exclusion NG 1) ?
18.4

What do you have for AAGUCGGCAGGAUAUACAUGAGGAUCACCCAUGUAAAUUUUUCGUUUAACUUGAAUGUGUAGAAGGGCCAUGAA [Ex3 #67] (Eterna round: R97, puzzle: Exclusion 3) ?
27.2
